# target.or.test.system: LPA1 (Homo sapiens)
# Sequence (Q92633 whole entry, species assumed): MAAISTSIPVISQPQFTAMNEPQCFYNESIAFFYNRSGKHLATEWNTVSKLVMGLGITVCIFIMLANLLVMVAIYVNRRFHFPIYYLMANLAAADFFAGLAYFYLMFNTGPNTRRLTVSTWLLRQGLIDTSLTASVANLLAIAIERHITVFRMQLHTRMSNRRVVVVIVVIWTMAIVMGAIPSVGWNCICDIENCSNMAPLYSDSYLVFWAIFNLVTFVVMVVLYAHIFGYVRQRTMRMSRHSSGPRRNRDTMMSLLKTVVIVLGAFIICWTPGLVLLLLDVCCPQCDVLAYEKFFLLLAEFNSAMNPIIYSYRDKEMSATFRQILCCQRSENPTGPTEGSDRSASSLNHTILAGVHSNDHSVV
# protocol: LPA receptor-mediated Ca2+ mobilization assay, LPA1
# condition.info: agonist, Ca2+ mobilization
outcome.measure: EC50 (nM)
Give a bare numeral; the unit nM is implied.

Task: I would be grateful if you could share the reported EC50 for CCCCCCCC/C=C\CCCCCCCC(=O)OC[C@@H](O)COP(=O)(O)O [LPA 18:1, Lysophosphatidic acid (18:1)] .
Result: 130

====

Below is a list of entries, each paired with its recorded Emax value.
# target.or.test.system: LPA2 (Homo sapiens)
# Sequence (Q9HBW0 whole entry): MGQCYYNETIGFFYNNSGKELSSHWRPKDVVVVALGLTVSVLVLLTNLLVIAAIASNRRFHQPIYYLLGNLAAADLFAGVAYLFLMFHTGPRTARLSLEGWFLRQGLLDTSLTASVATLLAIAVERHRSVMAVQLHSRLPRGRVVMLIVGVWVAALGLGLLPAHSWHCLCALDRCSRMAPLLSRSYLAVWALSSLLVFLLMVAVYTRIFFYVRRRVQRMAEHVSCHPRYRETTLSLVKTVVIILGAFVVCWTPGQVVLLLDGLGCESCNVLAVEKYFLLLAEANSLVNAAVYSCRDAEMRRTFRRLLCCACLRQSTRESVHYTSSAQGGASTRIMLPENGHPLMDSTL
# protocol: LPA receptor-mediated Ca2+ mobilization assay, LPA2 (RH7777 cells stably expressing LPA2)
# Format: cell-based
# Design: expressed in transfected cells
# condition.info: Ca2+ transients, RH7777 cells stably expressing LPA2
Just the number in %, nothing appended.

Worked cases, Emax given:
Task: Form: Entry = O=C(O)c1ccccc1S(=O)(=O)NCCCCCN1C(=O)c2cccc3cccc(c23)C1=O | System = LPA2 (Homo sapiens) | Emax = ____
Result: 100

Task: What value of Emax on LPA2 (Homo sapiens) does O=C(O)c1ccc2c(c1)S(=O)(=O)N(CCCCN1C(=O)c3cccc4cccc(c34)C1=O)C2=O have?
Result: 75

Task: Kindly state the measured Emax obtained for O=C(O)c1ccc(Br)cc1S(=O)(=O)NCCCCN1C(=O)c2cccc3cccc(c23)C1=O with LPA2 (Homo sapiens).
Result: 100

Task: Request - read-out Emax | tested on LPA2 (Homo sapiens) | molecule O=C(O)c1ccccc1S(=O)(=O)NCCCCN1C(=O)c2cccc3cccc(c23)C1=O
Result: 100

// below: Emax requested for another molecule
Task: Please state recorded Emax (tested on LPA2 (Homo sapiens)) of O=C(O)c1ccccc1SCCCN1C(=O)c2cccc3cccc(c23)C1=O
Result: 64

====

# target.or.test.system: LPA3 (Homo sapiens, UniProt Q9UBY5)
# Construct: expressed in transfected cells
# Sequence (Q9UBY5 whole entry, species assumed): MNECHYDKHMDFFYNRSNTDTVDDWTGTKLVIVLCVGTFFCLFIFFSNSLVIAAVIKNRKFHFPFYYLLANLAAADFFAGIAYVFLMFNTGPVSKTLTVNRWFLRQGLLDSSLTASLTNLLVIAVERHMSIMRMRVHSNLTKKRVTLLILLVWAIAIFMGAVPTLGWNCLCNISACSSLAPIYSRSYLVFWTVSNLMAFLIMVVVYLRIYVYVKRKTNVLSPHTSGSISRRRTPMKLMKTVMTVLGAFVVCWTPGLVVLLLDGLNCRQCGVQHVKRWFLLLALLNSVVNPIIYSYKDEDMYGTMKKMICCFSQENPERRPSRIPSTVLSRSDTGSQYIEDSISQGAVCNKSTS
# protocol: LPA receptor-mediated Ca2+ mobilization assay, LPA3
# Type: cell-based
# condition.info: inhibition by 10 μM compound of ~EC75 LPA 18:1 Ca2+ response
outcome.measure: LPA3 Imax (%)
Write the number in % without appending the unit.

Task: Given the entry O=C(O)c1ccccc1SCCCN1C(=O)c2cccc3cccc(c23)C1=O [GRI977143] , report its measured LPA3 Imax (%).
Result: 55

Task: Field request: LPA3 Imax (%) | item: O=C(O)c1cc(Cl)c(Cl)cc1C(=O)Nc1ccc2c(c1)C(=O)c1ccccc1-2 [Compound H2L5547924]
Result: 66

Task: I would be grateful if you could share the reported LPA3 Imax (%) for O=C(O)c1ccccc1C(=O)Nc1ccc2c(c1)C(=O)c1ccccc1-2 [NSC12404] .
Result: 61

***
Task: Using the record for O=C(O)c1ccccc1C(=O)Nc1ccc2c(c1)C(=O)c1ccccc1C2=O [Compound H2L5828102] , report its LPA3 Imax (%).
Result: 100

====

# target.or.test.system: LPA4 (Homo sapiens, UniProt Q99677)
# Sequence (Q99677 whole entry, species assumed): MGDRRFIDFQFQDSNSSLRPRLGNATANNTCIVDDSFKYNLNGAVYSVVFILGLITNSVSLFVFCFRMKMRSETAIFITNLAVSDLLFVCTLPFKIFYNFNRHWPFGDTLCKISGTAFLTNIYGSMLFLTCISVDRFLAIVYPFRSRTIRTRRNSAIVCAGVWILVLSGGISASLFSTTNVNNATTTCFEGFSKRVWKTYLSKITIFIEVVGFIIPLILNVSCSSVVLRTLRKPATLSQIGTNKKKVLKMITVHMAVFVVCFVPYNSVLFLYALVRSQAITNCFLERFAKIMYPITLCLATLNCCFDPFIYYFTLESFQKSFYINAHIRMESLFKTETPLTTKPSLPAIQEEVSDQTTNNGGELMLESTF
# protocol: LPA receptor-mediated Ca2+ mobilization assay, LPA4
# condition.info: agonist, Ca2+ mobilization
Reported EC50 is given for each of the following molecules.

Study these solved cases before continuing.
Task: What measured EC50 goes with O=C(O)c1ccccc1C(=O)Nc1ccc2c(c1)C(=O)c1ccccc1-2 ?
Result: > 10 µM

Task: What does the record list as EC50 for O=C(O)c1ccccc1C(=O)Nc1ccc2c(c1)C(=O)c1ccccc1C2=O ?
Result: > 10 µM

Kindly review the next molecule as well.
Task: # EC50 lookup, item O=C(O)c1ccccc1SCCCN1C(=O)c2cccc3cccc(c23)C1=O
Result: > 10 µM
